These entries and their values trace back to the supplement of paper PMC6757056.

B1: library; a variant is named by its letters at N, in order (parent)
chain: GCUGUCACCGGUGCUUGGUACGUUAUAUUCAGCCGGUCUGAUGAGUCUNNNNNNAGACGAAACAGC

- Variants of: B1
- ASSAY_PROCEDURE: FACS-Seq fitted mean relative fluorescence mCherry/BFP without ligand (log10 relative fluorescence); HEK293T overexpressing SLC46A1; higher = higher reporter protein expression
- EXPERIMENTAL_CONDITIONS: without (6R,S)-folinic acid; ligand present: no
Kind request: treat 0.3 as inclusive, so FACS-Seq fitted mean (log10) at 0.3 or higher is yes, anything lower is no.

Completed entries (count: 5):
GAAUAC : yes
UGUGAA : no
AUAUAC : no
UGGGCC : no
AUAAAA : yes

Now consider a different variant.
# input Answer whether FACS-Seq fitted mean (log10) of `CAUCGC` is greater than or equal to 0.3.
# output yes
